Entry source: patent US20070196376A1

Entries and their measured % Inhibition, mean (n = 2), IGF-II Proliferation Assay, NIH3T3/hIGF-IR cells follow.
Molecular target: human insulin-like growth factor-II (IGF-II) (human, UniProt P01344 25-91)
Assay: cell-based or functional assay
MEASUREMENT NAME: % Inhibition, mean (n = 2), IGF-II Proliferation Assay, NIH3T3/hIGF-IR cells

{"BINDER": "mAb 7.34.1 (antibody, V domains shown, Fully human XenoMouse hybridoma mAb, lambda light chain (V1-13/JL2); also called ATCC PTA-7423) VH: QVQLQESGPGLVKPSETLSLTCTVSGGSISSYYWSWIRQPPGRGLEWIGYFFYSGYTNYNPSLKSRVTMSVDTSKNQFSLKLSSVTAADTAVYYCACITGTTKGGMDVWGQGATVTVSS VL: QSVLTQAPSVSGAPGQRVTISCTGRSSNIGAGYDVHWYQQFPGTAPKLLIYGNSNRPSGVPDRFSGSKSGTSASLAITGLQAEDEADYYCQSYDSSLSGSVFGGGTKLTVLG", "OBSERVED MEASUREMENT": "73.6%"}
{"BINDER": "mAb 7.159.2 (antibody, V domains shown, Fully human XenoMouse hybridoma mAb, lambda light chain (V1-19/JL2); Sister clones 7.159.1 and 7.159.2 are said to be identical; also called 7.159.1; 7_159_1) VH: QVQLVQSGAEVKKPGASVKVSCKASGYTFTSYDINWVRQATGQGLEWMGWMNPNSGNTGYAQKFQGRVTMTRNTSISTAYMELSSLRSEDTAVYYCARDPYYYYYGMDVWGQGTTVTVSS VL: QSVLTQPPSVSAAPGQKVTISCSGSSSNIENNHVSWYQQLPGTAPKLLIYDNNKRPSGIPDRFSGSKSGTSATLGITGLQTGDEADYYCETWDTSLSAGRVFGGGTKLTVLG", "OBSERVED MEASUREMENT": "99.3%"}
{"BINDER": "mAb 7.158.2 (antibody, V domains shown, Kappa light chain (L5/JK3); also called 7.158.1; 7_158_1) VH: QLQLQESGPGLVKPSETLSLTCTVSGGSIRSSSYYWGWIRQPPGKGLEWIGGIYYSGSTYYNPSLKSRVTMSVDTSKNQFSLKLSSVTAADTAVYYCARQRGHSSGWWYFDLWGRGTLVTVSS VL: DIQMTQSPSSVSASVGDSVTITCRASQGISSYLAWYQQKPGKAPKLLIYAASSLQSGVPSRFSGNGSGTDFTLTISSLQPEDFATYYCQQANNFPFTFGPGTKVDIKR", "OBSERVED MEASUREMENT": "54.6%"}
{"BINDER": "mAb 7.234.2 (antibody, V domains shown, Kappa light chain (L5/JK3); also called 7.234.1; 7_234_1) VH: QLQLQESGPGLVKPSETLSLTCTVSGGSINSSSNYWGWIRQPPGKGLAWIGGIYYSGSTYYNPSLRSRVTMSVDTSKNQFSLKLSSVTAADTAVYYCARQRGHSSGWWYFDLWGRGTLVTVSS VL: DIQMTQSPSSVSASVGDRVTITCRASRGISSWLAWYQQRPGKAPKLLIYTASSLQSGVPSRFSGSGSGTDFTLTISSLQPEDFATYYCQQANSFPFTFGPGTKVDIKR", "OBSERVED MEASUREMENT": "62.1%"}
{"BINDER": "mAb 7.251.3 (antibody, V domains shown, Fully human XenoMouse hybridoma mAb, lambda light chain (V1-13/JL2); also called ATCC PTA-7422) VH: QVQLQESGPGLVKPSETLSLTCTVSGGSISSYYWSWIRQPPGKGLEWIGYFFYSGYTNYNPSLKSRVTISVDTSKNQFSLKLSSVTAADTAVYYCACITGTTKGGMDVWGQGTTVTVSS VL: QSVLTQPPSVSGAPGQRVTISCTGSSSNIGAGYDVHWYQQLPGTAPKLLIYGNNNRPSGVPDRFSGSKSGTSASLAITGLQADDEADYYCQSFDSSLSGSVFGGGTKLTVLG", "OBSERVED MEASUREMENT": "79.2%"}
